Below, each entry is listed with its recorded log10 IC50.
Molecular target: Integrin alpha-IIb/beta-3 (Homo sapiens, UniProt P05106+P08514)
Sequence (P05106 27-788 limits assumed): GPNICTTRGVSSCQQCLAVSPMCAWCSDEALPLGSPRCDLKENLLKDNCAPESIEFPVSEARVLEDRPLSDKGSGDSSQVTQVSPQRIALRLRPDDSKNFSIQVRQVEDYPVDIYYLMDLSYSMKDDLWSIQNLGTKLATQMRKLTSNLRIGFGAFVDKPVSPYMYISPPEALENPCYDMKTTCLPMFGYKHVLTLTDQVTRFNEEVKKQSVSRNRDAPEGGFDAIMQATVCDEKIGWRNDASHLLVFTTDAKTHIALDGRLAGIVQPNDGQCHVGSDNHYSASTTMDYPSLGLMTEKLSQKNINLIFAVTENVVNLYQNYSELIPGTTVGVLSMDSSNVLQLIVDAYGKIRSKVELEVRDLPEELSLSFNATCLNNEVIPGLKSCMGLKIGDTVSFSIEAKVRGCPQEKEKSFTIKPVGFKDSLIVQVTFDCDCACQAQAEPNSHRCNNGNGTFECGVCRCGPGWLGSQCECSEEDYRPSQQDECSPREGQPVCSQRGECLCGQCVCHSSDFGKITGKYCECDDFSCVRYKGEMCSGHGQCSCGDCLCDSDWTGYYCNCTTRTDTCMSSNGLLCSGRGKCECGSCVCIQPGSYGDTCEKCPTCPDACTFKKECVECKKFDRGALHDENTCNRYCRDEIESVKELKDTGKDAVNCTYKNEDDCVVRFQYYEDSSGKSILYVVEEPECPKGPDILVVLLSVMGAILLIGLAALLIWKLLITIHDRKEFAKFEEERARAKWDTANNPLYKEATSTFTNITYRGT
Sequence (P08514 32-887 limits assumed): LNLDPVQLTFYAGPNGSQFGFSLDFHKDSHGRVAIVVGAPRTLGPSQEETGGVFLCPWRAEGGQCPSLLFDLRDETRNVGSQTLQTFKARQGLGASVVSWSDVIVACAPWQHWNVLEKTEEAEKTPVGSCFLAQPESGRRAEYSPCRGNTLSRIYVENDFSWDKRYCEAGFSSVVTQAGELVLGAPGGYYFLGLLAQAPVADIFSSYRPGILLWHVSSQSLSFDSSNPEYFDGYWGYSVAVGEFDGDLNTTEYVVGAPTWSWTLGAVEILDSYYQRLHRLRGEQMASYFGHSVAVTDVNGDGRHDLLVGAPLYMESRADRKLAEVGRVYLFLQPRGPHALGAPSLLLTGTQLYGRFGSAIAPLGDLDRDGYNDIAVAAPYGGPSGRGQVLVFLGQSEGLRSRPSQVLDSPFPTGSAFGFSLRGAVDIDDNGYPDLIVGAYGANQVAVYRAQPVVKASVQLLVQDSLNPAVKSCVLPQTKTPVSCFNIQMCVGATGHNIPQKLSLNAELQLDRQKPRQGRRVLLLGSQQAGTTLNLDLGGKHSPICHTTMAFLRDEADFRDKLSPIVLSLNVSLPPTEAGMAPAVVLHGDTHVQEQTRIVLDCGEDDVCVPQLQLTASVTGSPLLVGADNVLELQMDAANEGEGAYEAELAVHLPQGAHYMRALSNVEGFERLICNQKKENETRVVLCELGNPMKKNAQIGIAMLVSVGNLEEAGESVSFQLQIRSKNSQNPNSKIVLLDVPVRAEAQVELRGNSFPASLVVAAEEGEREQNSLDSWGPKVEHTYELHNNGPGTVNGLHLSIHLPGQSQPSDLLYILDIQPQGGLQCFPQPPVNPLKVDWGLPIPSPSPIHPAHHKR
Sequence (P08514 891-1039 limits assumed): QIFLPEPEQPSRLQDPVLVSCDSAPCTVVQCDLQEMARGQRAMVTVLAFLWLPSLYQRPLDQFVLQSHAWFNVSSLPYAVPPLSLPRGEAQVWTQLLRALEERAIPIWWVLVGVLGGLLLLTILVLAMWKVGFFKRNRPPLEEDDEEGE
Experiment: Inhibition of glycoprotein IIb/III integrin mediated fibrinogen binding to activated platelets
# log10 transformed; quantity=IC50; unit=nM

[
  {
    "Compound": "NCCCCCOc1ccc(C(=O)NC[C@H](NS(=O)(=O)c2ccccc2)C(=O)O)cc1",
    "Readout Number": 1.11
  },
  {
    "Compound": "NCCOc1cccc(C(=O)NC[C@H](NS(=O)(=O)c2ccccc2)C(=O)O)c1",
    "Readout Number": 3.96
  },
  {
    "Compound": "O=C(O)CCNC(=O)c1ccc(N2CCNCC2)cc1",
    "Readout Number": 5.36
  },
  {
    "Compound": "NCCCCCC(=O)NCC(=O)NC[C@@H](NS(=O)(=O)c1ccccc1)C(=O)O",
    "Readout Number": 3.45
  },
  {
    "Compound": "NCCCCC(=O)NCC(=O)NC[C@@H](NS(=O)(=O)c1ccccc1)C(=O)O",
    "Readout Number": 4.46
  }
]

Request: Give the measured log10 IC50 for "NCCCc1ccc(C(=O)NC[C@H](NS(=O)(=O)c2ccccc2)C(=O)O)cc1"
Response: 2.43

Request: Give the measured log10 IC50 for "NCCOc1ccc(C(=O)NC[C@H](NS(=O)(=O)c2ccccc2)C(=O)O)cc1"
Response: 2.04

Request: Give the measured log10 IC50 for "O=C(NC[C@H](NS(=O)(=O)c1ccccc1)C(=O)O)c1ccc(CN2CCNCC2)cc1"
Response: 1.53

Request: Give the measured log10 IC50 for O=C(NC[C@H](NS(=O)(=O)c1ccccc1)C(=O)O)c1ccc(CCC2CCCCN2)cc1 (some centres undefined)
Response: 2.11

Request: Give the measured log10 IC50 for "NCCCOc1ccc(C(=O)NC[C@H](NS(=O)(=O)c2ccccc2)C(=O)O)cc1"
Response: 1.74

Request: Give the measured log10 IC50 for "NCCCCCCC(=O)NCC(=O)NC[C@@H](NS(=O)(=O)c1ccccc1)C(=O)O"
Response: 2.58

Request: Give the measured log10 IC50 for "NCCc1ccc(C(=O)NC[C@H](NS(=O)(=O)c2ccccc2)C(=O)O)cc1"
Response: 3.69

Request: Give the measured log10 IC50 for "NCCCCOc1ccc(C(=O)NC[C@H](NS(=O)(=O)c2ccccc2)C(=O)O)cc1"
Response: 1.36

Entry source: ChEMBL document CHEMBL1132685
